Numbers sourced from ChEMBL document CHEMBL4190348.

- ASSAY_TEXT: Selectivity index, ratio of IC50 for HEK293 cells to IC50 for human HCT116 cells
- Format: toxicity
- PROTOCOL_CONDITIONS: HEK293 cells versus HCT116 cells, read-out: Ratio IC50
MEASUREMENT_TYPE: selectivity ratio

- C=C(C=O)[C@@H]1CC[C@]2(C(=O)OC)CC[C@]3(C)[C@H](CC[C@@H]4[C@@](C)(CC#N)[C@H](C(C)(C)C(=O)CBr)CC[C@]43C)[C@@H]12: 8.9

* * *

- ASSAY_TEXT: Selectivity index, ratio of IC50 for HEK293 cells to IC50 for human TE32 cells
- Type: toxicity
- PROTOCOL_CONDITIONS: HEK293 cells versus TE32 cells, read-out: Ratio IC50
MEASUREMENT_TYPE: selectivity ratio

• C=C(C=O)[C@@H]1CC[C@]2(C(=O)OC)CC[C@]3(C)[C@H](CC[C@@H]4[C@@](C)(CC#N)[C@H](C(C)(C)C(=O)CBr)CC[C@]43C)[C@@H]12 = 24.3
